Tested on: NOMO1
assayMethodText: cell viability relative to DMSO control; higher = less cytotoxic
conditionNotes: HPLM + 10% dialyzed FBS; 48 h; 1.71 µM
Each record is given satisfied if its reported cell viability is strictly below 90%. Records at or above 90% are given not satisfied.

Use these answered entries as a reference point.
[[record]]
molecule = "N#C/C(=C1/Nc2ccccc2S1)c1ccnc(OCc2ccc(CN3CCOCC3)cc2)n1"
testtarget = "NOMO1"
cat = "satisfied"

[[record]]
molecule = "COc1cc2c(Nc3ccc(Cl)c(Cl)c3F)ncnc2cc1OC[C@@H]1C[C@@H]2CN(C)C[C@@H]2C1"
testtarget = "NOMO1"
cat = "not satisfied"

[[record]]
molecule = "CC[C@@H]1C(=O)N(C)c2cnc(Nc3ccc(C(=O)NC4CCN(C)CC4)cc3OC)nc2N1C1CCCC1"
testtarget = "NOMO1"
cat = "satisfied"

[[record]]
molecule = "CO[C@@H]1[C@@H](O)[C@H](O)[C@@H](n2c3c(Cl)cccc3c3c4c(c5c6cccc(Cl)c6[nH]c5c32)C(=O)NC4=O)O[C@H]1CO"
testtarget = "NOMO1"
cat = "satisfied"

[[record]]
molecule = "CC1=C(/C=C/C(C)=C/C=C/C(C)=C/C(=O)O)C(C)(C)CCC1"
testtarget = "NOMO1"
cat = "not satisfied"


Kindly review the next molecule as well.
**Q:** Record Cc1cccc2c1CC[C@H](CN1CCC(c3c(Cl)cccc3Cl)CC1)C[C@@H]2O : is its cell viability strictly below 90%?
**A:** not satisfied

* * *

Test system: SEM cells
assayMethodText: cell viability relative to DMSO control; higher = less cytotoxic
conditionNotes: RPMI 5 mM glucose + 10% dialyzed FBS; 48 h; 0.000781 µM
reportedEndpoint: cell viability (%)
Hi! Could you send only the number? It should be in %, unit omitted.

// worked examples, cell viability included
[[record]]
compound = "CC[C@@H]1C(=O)N(C)c2cnc(Nc3ccc(C(=O)NC4CCN(C)CC4)cc3OC)nc2N1C1CCCC1"
testtarget = "SEM cells"
reportedendpoint = "cell viability"
quantitativeresult = 117

[[record]]
compound = "CC(C)(C)C1=CC(=C(NC(=O)C/2=C/NC3=C(C=CC=C3)C2=O)C=C1O)C(C)(C)C"
testtarget = "SEM cells"
reportedendpoint = "cell viability"
quantitativeresult = 98.7

[[record]]
compound = "Nc1ccn([C@H]2CS[C@@H](CO)O2)c(=O)n1"
testtarget = "SEM cells"
reportedendpoint = "cell viability"
quantitativeresult = 104


**Q:** Any idea what cell viability was measured for CCOC(=O)N[C@@H]1CC[C@@H]2[C@@H](C1)C[C@H]1C(=O)O[C@H](C)[C@H]1[C@H]2/C=C/c1ccc(-c2cccc(F)c2)cn1 ?
**A:** 108

**Q:** Follow-up item: COc1ccc(-c2oc3cc(OC)ccc3c2C(=O)c2ccc(C#N)cc2)cc1
**A:** 113

**Q:** Follow-up item: CN(C)[C@@H](CCOc1cccc2ccccc12)c1ccccc1
**A:** 101

**Q:** Follow-up item: CC1=C(/C=C/C(C)=C/C=C/C(C)=C/C(=O)O)C(C)(C)CCC1
**A:** 112

**Q:** Follow-up item: Cc1nc(N)ncc1-c1nc(N2CCOCC2)c2sc(C(C)(C)O)cc2n1
**A:** 115

**Q:** Follow-up item: COc1ccc(C2(C#N)CCC(C(=O)O)CC2)cc1OC1CCCC1 (centres undefined)
**A:** 81.8

* * *

Test system: SEM cells
assayMethodText: cell viability relative to DMSO control; higher = less cytotoxic
conditionNotes: HPLM + 10% dialyzed FBS; 48 h; 0.000781 µM
Catalogue of cell viability readings, one per entry.
Hi! Could you send only the number? It should be in %, unit omitted.

// worked examples, cell viability included
[[record]]
compound = "C[N+]1(C)[C@@H]2CC(OC(=O)C(O)(c3cccs3)c3cccs3)C[C@H]1[C@@H]1O[C@@H]12 (stereo partly specified)"
measurementunit = "%"
quantitativeresult = 94.8

[[record]]
compound = "O=C(NCC1CCOCC1)c1cnc(Nc2ccc(Cl)cc2Cl)nc1C(F)(F)F"
measurementunit = "%"
quantitativeresult = 89.6

[[record]]
compound = "Clc1ccc2ncc(-c3cccc(NC4CNC4)n3)n2c1"
measurementunit = "%"
quantitativeresult = 120

[[record]]
compound = "COc1cc(Cl)cn2c(-c3cccc(NC4CNC4)n3)cnc12"
measurementunit = "%"
quantitativeresult = 114

[[record]]
compound = "CC(C)(C)C1=CC(=C(NC(=O)C/2=C/NC3=C(C=CC=C3)C2=O)C=C1O)C(C)(C)C"
measurementunit = "%"
quantitativeresult = 122

[[record]]
compound = "N=C(N)NC(=N)N1CCOCC1"
measurementunit = "%"
quantitativeresult = 97.7

[[record]]
compound = "N[C@@H](Cc1ccc(O)c(O)c1)C(=O)O"
measurementunit = "%"
quantitativeresult = 86.4

[[record]]
compound = "Cc1ccc([S+](=O)([O-])Nc2cc(Cl)ccc2C(=O)Nc2nc(-c3ccccc3)cs2)cc1"
measurementunit = "%"
quantitativeresult = 116


**Q:** Any idea what cell viability was measured for Oc1c(Cl)cc(Cl)c2cccnc12 ?
**A:** 112

**Q:** Follow-up item: NNc1nncc2ccccc12
**A:** 76.2

**Q:** Follow-up item: NCCc1ccc(O)c(O)c1
**A:** 119

* * *

Test system: P12-Ichikawa
assayMethodText: cell viability relative to DMSO control; higher = less cytotoxic
conditionNotes: RPMI 5 mM glucose + 10% dialyzed FBS; 48 h; 0.569 µM
reportedEndpoint: cell viability
Kindly report the value followed by its unit.

// worked examples, cell viability included
[[record]]
compound = "C=CC(=O)Nc1ccc2ncnc(Nc3ccc(OCc4cccc(F)c4)c(Cl)c3)c2c1"
testtarget = "P12-Ichikawa"
reportedendpoint = "cell viability"
result = "116%"

[[record]]
compound = "O=C1N\\C=N/C2=C1C=N[NH]2"
testtarget = "P12-Ichikawa"
reportedendpoint = "cell viability"
result = "90.5%"

[[record]]
compound = "CC(C)n1cnc2c(NCCc3ccc(O)cc3)nc(-c3csc4ccccc34)nc21"
testtarget = "P12-Ichikawa"
reportedendpoint = "cell viability"
result = "118%"

[[record]]
compound = "CN(C(Cc1ccc(O[S+](=O)([O-])c2cccc3cnccc23)cc1)C(=O)N1CCN(c2ccccc2)CC1)[S+](=O)([O-])c1cccc2cnccc12 (stereo not drawn)"
testtarget = "P12-Ichikawa"
reportedendpoint = "cell viability"
result = "113%"

[[record]]
compound = "C[C@H](Cc1ccc(O)c(O)c1)[C@@H](C)Cc1ccc(O)c(O)c1"
testtarget = "P12-Ichikawa"
reportedendpoint = "cell viability"
result = "109%"

[[record]]
compound = "COC(=O)[C@H](c1ccccc1Cl)N1CCc2sccc2C1"
testtarget = "P12-Ichikawa"
reportedendpoint = "cell viability"
result = "118%"

[[record]]
compound = "COc1cc2c(Nc3ccc(Cl)c(Cl)c3F)ncnc2cc1OC[C@@H]1C[C@@H]2CN(C)C[C@@H]2C1"
testtarget = "P12-Ichikawa"
reportedendpoint = "cell viability"
result = "115%"

[[record]]
compound = "CCOCC(O)COc1ccc(NC(=O)CC[S+](C)C)cc1 (stereo not drawn)"
testtarget = "P12-Ichikawa"
reportedendpoint = "cell viability"
result = "89.5%"


**Q:** Any idea what cell viability was measured for CCOC(=O)[C@H]1O[C@@H]1C(=O)N[C@@H](CC(C)C)C(=O)NCCC(C)C ?
**A:** 122%

**Q:** Follow-up item: NC[C@H]1O[C@H](O[C@H]2[C@H](O)[C@@H](O[C@H]3O[C@H](CO)[C@@H](O)[C@H](N)[C@H]3O)[C@H](N)C[C@@H]2N)[C@H](N)C[C@@H]1O
**A:** 79.7%

**Q:** Follow-up item: CCOC(=O)O[C@]1(C(=O)OCCl)CC[C@H]2[C@@H]3CCC4=CC(=O)C=C[C@]4(C)[C@H]3[C@@H](O)C[C@@]21C
**A:** 98.4%

**Q:** Follow-up item: O=[S+]([O-])(NCCNC/C=C/c1ccc(Br)cc1)c1cccc2cnccc12
**A:** 102%

**Q:** Follow-up item: CC(C)(Sc1ccc(CCN(CCCCC2CCCCC2)C(=O)NC2CCCCC2)cc1)C(=O)O
**A:** 104%

* * *

System: SEM cells
assayMethodText: cell viability relative to DMSO control; higher = less cytotoxic
conditionNotes: RPMI 5 mM glucose + 10% FBS; 48 h; 0.19 µM
Catalogue of cell viability readings, one per entry.
Hi! Could you send only the number? It should be in %, unit omitted.

[[record]]
chemicalstring = "CC1=C(/C=C/C(C)=C/C=C/C(C)=C/C(=O)O)C(C)(C)CCC1"
testtarget = "SEM cells"
reportedendpoint = "cell viability"
quantitativeresult = 123

[[record]]
chemicalstring = "CS[C@H]1SC[C@@H]2C(=O)N(C)[C@H](C(C)C)C(=O)OC[C@H](NC(=O)c3cnc4ccccc4n3)C(=O)N[C@H](C)C(=O)N(C)[C@H]1C(=O)N(C)[C@H](C(C)C)C(=O)OC[C@H](NC(=O)c1cnc3ccccc3n1)C(=O)N[C@H](C)C(=O)N2C"
testtarget = "SEM cells"
reportedendpoint = "cell viability"
quantitativeresult = 7.44


Okay, next one:
**Q:** Please tell me: cell viability of CC[C@H]1CN2CCc3cc(OC)c(OC)cc3[C@@H]2C[C@@H]1C[C@H]1NCCc2cc(OC)c(OC)cc21 , system SEM cells?
**A:** 61
